testedOn: JAK2 kinase activity on STAT5 in TF1 cells (Homo sapiens, UniProt O60674)
Sequence (O60674 whole entry): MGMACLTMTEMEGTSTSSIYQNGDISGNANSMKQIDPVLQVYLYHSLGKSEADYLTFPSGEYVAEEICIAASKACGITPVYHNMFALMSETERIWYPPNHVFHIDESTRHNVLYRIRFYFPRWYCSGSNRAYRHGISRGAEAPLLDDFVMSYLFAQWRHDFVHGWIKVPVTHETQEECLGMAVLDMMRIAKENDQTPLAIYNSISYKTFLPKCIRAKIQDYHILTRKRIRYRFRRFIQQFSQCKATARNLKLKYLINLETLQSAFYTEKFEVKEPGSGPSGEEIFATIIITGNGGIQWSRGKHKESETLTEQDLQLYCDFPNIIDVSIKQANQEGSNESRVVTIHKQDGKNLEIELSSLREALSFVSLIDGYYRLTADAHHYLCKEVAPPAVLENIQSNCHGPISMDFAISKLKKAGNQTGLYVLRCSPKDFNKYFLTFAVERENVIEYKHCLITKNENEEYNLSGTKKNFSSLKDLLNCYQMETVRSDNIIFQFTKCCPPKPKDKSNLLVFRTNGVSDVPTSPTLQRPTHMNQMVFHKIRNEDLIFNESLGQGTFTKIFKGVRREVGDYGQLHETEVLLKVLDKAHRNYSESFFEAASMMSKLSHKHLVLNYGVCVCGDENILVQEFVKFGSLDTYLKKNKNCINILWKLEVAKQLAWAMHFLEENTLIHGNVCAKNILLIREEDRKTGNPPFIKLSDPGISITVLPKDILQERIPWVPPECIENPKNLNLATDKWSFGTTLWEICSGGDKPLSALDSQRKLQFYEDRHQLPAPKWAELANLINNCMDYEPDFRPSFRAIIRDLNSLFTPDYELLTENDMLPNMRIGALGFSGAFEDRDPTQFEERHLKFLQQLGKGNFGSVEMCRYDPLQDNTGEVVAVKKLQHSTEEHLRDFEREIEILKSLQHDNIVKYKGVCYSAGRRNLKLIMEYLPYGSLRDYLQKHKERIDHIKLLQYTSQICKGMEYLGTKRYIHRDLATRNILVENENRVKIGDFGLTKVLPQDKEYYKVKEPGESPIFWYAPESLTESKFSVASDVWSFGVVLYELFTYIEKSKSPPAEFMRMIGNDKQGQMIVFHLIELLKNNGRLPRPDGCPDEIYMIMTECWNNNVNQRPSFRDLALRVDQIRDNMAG
experimentSummary: pSTAT5 cell assay (MSD; TF1 cells, 30 ng/mL IL-3 stimulation)
testContext: 30 ng/mL IL-3, 15 minutes
Structures can show the parent of a compound that is named as a salt.
For each of the compounds below, state its IC50.

Challenge: Consider the compound C[C@@H]1CN(c2ccnn3cc(-c4cnn(-c5cccnc5)c4)cc23)C(=O)[C@]1(C#N)C1CC1 [Example 159] and give its measured IC50.
Response given: 5 to 10 µM

Challenge: Try the compound CCn1cc(-c2cn3ncc(F)c3c(N3C[C@@H](C)[C@@](C#N)(C4CC4)C3=O)n2)cn1 [Example 188]
Response given: 1 to 5 µM

Challenge: Cc1nn(C)cc1-c1cn2nccc2c(N2C[C@@H](C)[C@@](C#N)(C3CC3)C2=O)n1 [Example 208] ?
Response given: 1 to 5 µM

Challenge: Another compound to check: [2H]C([2H])([2H])n1cc(-c2cn3nccc3c(N3C[C@@H](C)[C@@](C#N)(C4CC4)C3=O)n2)cn1 [Example 201]
Response given: 0.1 to 1 µM

Challenge: Same question, C[C@@H]1CN(c2ccnn3cc(-c4cnn(C(F)F)c4)cc23)C(=O)[C@]1(C#N)C1CC1 [Example 35] this time
Response given: 5 to 10 µM

Challenge: Param item: C[C@@H]1CN(c2ccnn3cc(-c4cn(C)nn4)cc23)C(=O)[C@]1(C#N)C1CC1 [Example 112, trifluoroacetate]
Response given: > 10 µM

Challenge: Now give it for C[C@@H]1CN(c2nc(-c3cnn(C4CCOCC4)c3)cn3ncc(F)c23)C(=O)[C@]1(C#N)C1CC1 [Example 218] too.
Response given: 0.1 to 1 µM

Challenge: What would you report for CC(C)n1cc(-n2nc(N3C[C@@H](C)[C@@](C#N)(C4CC4)C3=O)c3ccncc32)cn1 [Example 280] ?
Response given: > 10 µM

Challenge: What about this compound? C[C@@H]1CN(c2nc(-c3cnn(C)c3)cc3ncsc23)C(=O)[C@]1(C#N)C1CC1 [Example 284]
Response given: < 0.1 µM

Challenge: Field entry: C[C@@H]1CN(c2ncnc3[nH]c(-c4cnn(C)c4)cc23)C(=O)[C@]1(C#N)C1CC1 [Example 6]
Response given: > 10 µM

Challenge: What do you get for C[C@@H]1CN(c2nc(-c3cnn(C(F)F)c3)cc3ncsc23)C(=O)[C@]1(C#N)C1CC1 [Example 353] ?
Response given: 0.1 to 1 µM

Challenge: Next: C[C@@H]1CN(c2ccnn3cc(-c4ccc(N(C)C)cn4)cc23)C(=O)[C@]1(C#N)C1CC1 [Example 134, trifluoroacetate]
Response given: 5 to 10 µM

Challenge: Also check C[C@@H]1CN(c2ccnn3cc(-c4nc5cnccc5s4)cc23)C(=O)[C@]1(C#N)C1CC1 [Example 102, trifluoroacetate]
Response given: > 10 µM

Challenge: And then C[C@@H]1CN(c2ccnn3cc(-c4cnn(-c5ccccn5)c4)cc23)C(=O)[C@]1(C#N)C1CC1 [Example 158] , what is it?
Response given: > 10 µM

Challenge: Can you handle CC[C@@H]1CN(c2ccnn3cc(-c4cnn(C)c4)cc23)C(=O)[C@]1(C#N)C1CC1 [Example 23] next?
Response given: 5 to 10 µM

Challenge: Check C[C@@H]1CN(c2ccnn3cc(-c4cnn(C)c4)cc23)C(=O)[C@]1(C#N)C1CC1 [Example 34] too.
Response given: 5 to 10 µM

Challenge: For C[C@@H]1CN(c2ccnn3cc(-c4ccnc(F)c4)cc23)C(=O)[C@]1(C#N)C1CC1 [Example 73] then?
Response given: > 10 µM

Challenge: Again, but for [2H]C([2H])([2H])n1cc(-c2cn3ncc(F)c3c(N3C[C@@H](C)[C@@](C#N)(C4CC4)C3=O)n2)cn1 [Example 211]
Response given: 1 to 5 µM

Challenge: Next record, please: C[C@@H]1CN(c2c[nH]c3ncc(-c4cnn(C)c4)cc23)C(=O)[C@]1(C#N)C1CC1 [Example 288]
Response given: 1 to 5 µM

Challenge: Thanks! And C[C@@H]1CN(c2ccnn3cc(-c4cnn(CC5(C#N)CC5)c4)cc23)C(=O)[C@]1(C#N)C1CC1 [Example 324] ?
Response given: 0.1 to 1 µM

Challenge: Also Cc1cncc(-c2cn3nccc3c(N3C[C@@H](C)[C@@](C#N)(C4CC4)C3=O)n2)c1 [Example 236] ?
Response given: 5 to 10 µM

Challenge: And C[C@@H]1CN(c2ccnn3cc(-c4cnn(C5CC(F)(F)C5)c4)cc23)C(=O)[C@]1(C#N)C1CC1 [Example 157] ?
Response given: 1 to 5 µM

Challenge: Another compound: COc1cccc(-c2cn3nccc3c(N3C[C@@H](C)[C@@](C#N)(C4CC4)C3=O)n2)n1 [Example 193]
Response given: > 10 µM
